Each entry below carries its reported Log Ki.
- Test System: Adrenergic receptor alpha-1 (Rattus norvegicus, UniProt P15823+P23944+P43140)
- Run Description: Binding affinity at Alpha-1 adrenergic receptor by inhibition of [3H]-prazosin binding to rat cortex
Measurement Type: Log Ki

{"columns": ["Compound", "Test System", "Measurement Type", "Experimental Result"],
 "data": [
  ["COc1cc2c(cc1OC)[C@@H](O)[C@H](N1CCC(c3cccc4c3OCCO4)CC1)C2 (relative stereo)", "Adrenergic receptor alpha-1 (Rattus norvegicus, UniProt P15823+P23944+P43140)", "Log Ki", -6.9],
  ["O[C@@H]1c2ccccc2C[C@H]1N1CCN(c2cccc3c2OCCO3)CC1 (relative stereo)", "Adrenergic receptor alpha-1 (Rattus norvegicus, UniProt P15823+P23944+P43140)", "Log Ki", -6.03],
  ["O=[N+]([O-])c1ccc2c(c1)[C@@H](O)[C@H](N1CCC(c3cccc4c3OCCO4)CC1)C2 (relative stereo)", "Adrenergic receptor alpha-1 (Rattus norvegicus, UniProt P15823+P23944+P43140)", "Log Ki", -6.95],
  ["O[C@@H]1c2cc(F)ccc2C[C@H]1N1CCC(c2cccc3c2OCCO3)CC1 (relative stereo)", "Adrenergic receptor alpha-1 (Rattus norvegicus, UniProt P15823+P23944+P43140)", "Log Ki", -7.1]
]}
